Listing of recorded KD improvement factor vs parental scFv Li3G30 by entry.
Biological target: EGFRvIII-Fc fusion antigen (human, UniProt P00533 25-645)
Experiment: SPR Biacore T200, EGFRvIII-Fc captured via anti-hu Fc, scFv analyte, 1:1 model;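 further: Multi-cycle kinetics on a CM5 chip in HBS-P+ running buffer, 180 s scFv association then 540 s dissociation, with blank flow cell signals subtracted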
Write it as a number; the unit fold goes unstated.

Known KD improvement factor vs parental scFv Li3G30 results, listed for orientation:
binder	obs_value
scFv 479 (scFv, V domains shown, One-chain scFv, His-tagged) VH: EVQLVQSGAEVKKPGESLKISCKGSGYDFSSYWIGWVRQMPGKGLEWMGIIYPGDSDTIYSPSFQGQVTISADKSISTAYLQWSSLKASDTAMYYCARLGSSWTNDAFDIWGQGTLVTVSS VL: SYELTQPPSVSVSPGQTARITCSGAALPEQYAYWYQQKPGQAPVLVIYKDSERPSGIPERFSGSSSGTTVTLTISGVQAEDEADYYCQSVDSSGTFYVFGGGTKLTVL	3.1
scFv 473 (scFv, V domains shown, One-chain scFv, His-tagged) VH: EVQLVQSGAEVKKPGESLKISCKGSGYSFSSYWIGWVRQMPGKGLEWMGIIYPGDSDTRYSPSFQGQVTISADKSISTAYLQWSSLKASDTAMYYCARLGSSWTNDAFDIWGQGTLVTVSS VL: SYELTQPPSVSVSPGQTARITCSGHALPSQYAYWYQQKPGQAPVLVIYKDTERPSGIPERFSGSSSGTTVTLTISGVQAEDEADYYCQSVDSSGTSVIFGGGTKLTVL	11.6
scFv 476 (scFv, V domains shown, One-chain scFv, His-tagged) VH: EVQLVQSGAEVKKPGESLKISCKGSGYSFTSYWIGWVRQMPGKGLEWMGIIYPGDSDTRYSPSFQGQVTISADKSISTAYLQWSSLKASDTAMYYCARLGSSWTNDAFDIWGQGTLVTVSS VL: SYELTQPPSVSVSPGQTARITCSGDNIPHQYAYWYQQKPGQAPVLVIYKDTERPAGIPERFSGSSSGTTVTLTISGVQAEDEADYYCQSADPTGAYLVFGGGTKLTVL	5

// below: KD improvement factor vs parental scFv Li3G30 requested for another binder
What KD improvement factor vs parental scFv Li3G30 value was documented for this binder, scFv 477 (scFv, V domains shown, One-chain scFv, His-tagged) VH: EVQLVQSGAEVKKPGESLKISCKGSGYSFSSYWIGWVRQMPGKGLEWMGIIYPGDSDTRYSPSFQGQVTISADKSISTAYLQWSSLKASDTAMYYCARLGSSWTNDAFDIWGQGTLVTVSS VL: SYELTQPPSVSVSPGQTARITCSGDYLPKQYAYWYQQKPGQAPVLVIYKDTERPSGIPERFSGSSSGTTVTLTISGVQAEDEADYYCQSADASGTYYVFGGGTKLTVL ? 6
